Data provenance: PubChem BioAssay AID1918991

- Tested on: 186277-243-T-J2-PDC complex spheroid growth;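 note: luminescent signal used as a stand-in for viable cell amount; spheroids exposed to compounds for seven days before the viability read; 100% = DMSO vehicle control wells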
- assayInfo: Anticancer human tumor 186277-243-T-J2-PDC patient-derived colon adenocarcinoma cell line growth inhibition [AhR]; active = viability on the fitted dose curve at most 10% of control; inactive = the rest
- recordedConditions: second compound 0.316 µM; first compound 1 µM
Answer with one of the outcomes 1.0 for active, 0.0 for inactive

Some solved entries appear below for comparison.
Nc1ccn(C2OC(CO)C(O)C2(F)F)c(=O)n1 (configuration not stated) + Cc1ccccc1N=Nc1ccc(NC(=O)c2ccnn2C)c(C)c1; 0.0
Nc1ccn(C2OC(CO)C(O)C2(F)F)c(=O)n1 (configuration not stated) + CC(CO)NC(=O)c1cc(-c2ccc(Cl)cc2)nn(-c2cnn(C)c2)c1=O; 1.0
CC1(C)CCC(CN2CCN(c3ccc(C(=O)NS(=O)(=O)c4ccc(NCC5CCOCC5)c([N+](=O)[O-])c4)c(Oc4cnc5[nH]ccc5c4)c3)CC2)=C(c2ccc(Cl)cc2)C1 + CC(CO)NC(=O)c1cc(-c2ccc(Cl)cc2)nn(-c2cnn(C)c2)c1=O; 0.0

Then this molecule:
Input line: Call for entry COc1cc(C2c3cc4c(cc3C(OC3OC5COC(C)OC5C(O)C3O)C3COC(=O)C23)OCO4)cc(OC)c1O (configuration not stated) + CC(CO)NC(=O)c1cc(-c2ccc(Cl)cc2)nn(-c2cnn(C)c2)c1=O :
Output line: 0.0
